pIC50 for assorted compounds
Target: Tyrosine-protein phosphatase non-receptor type 1 (Homo sapiens, UniProt P18031)
Test: Inhibition of recombinant human PTP1B catalytic domain expressed in Escherichia coli BL21-CodonPlus (DE3) using pNPP as substrate measured for 2 mins
pIC50 is a log-scale quantity: -log10 of the concentration expressed in molar.

COC(=O)C[C@H]1Oc2ccc(Cl)cc2[C@@H]2O[C@@]3(C(=O)N(Cc4ccccc4)c4ccccc43)[C@@H](c3ccc(Br)cc3)[C@]12[N+](=O)[O-]; 5.33
COc1cccc2c1O[C@@H]1CC(=O)N[C@]13[C@H]2O[C@@]1(C(=O)N(Cc2ccccc2)c2ccccc21)[C@H]3c1ccc(C)cc1; 5.15

Next, consider the following compound.
Form field: reported pIC50 of COC(=O)C[C@H]1Oc2c(OC)cccc2[C@@H]2O[C@@]3(C(=O)N(Cc4ccccc4)c4ccccc43)[C@@H](c3ccccc3OC)[C@]12[N+](=O)[O-] 5.23

====

Each record here notes measured IC50.
Biological target: Tyrosine-protein phosphatase non-receptor type 1 (Homo sapiens)
Test: Inhibition of recombinant human PTP1B catalytic domain expressed in Escherichia coli BL21-CodonPlus (DE3) using pNPP as substrate measured for 2 mins
Write down the numeric answer in µM and omit the unit.

COC(=O)C[C@H]1Oc2c(OC)cccc2[C@@H]2O[C@@]3(C(=O)N(Cc4ccccc4)c4ccccc43)[C@@H](c3ccc(C)cc3)[C@]12[N+](=O)[O-]; 8.2

I have this compound here, COc1ccc2c(c1)[C@@H]1O[C@@]3(C(=O)N(Cc4ccccc4)c4ccccc43)[C@@H](c3ccc(Br)cc3)[C@@]13NC(=O)C[C@H]3O2 , and I need its recorded IC50. 6.48

I'd like to know its IC50. The compound in question is Cc1ccc([C@H]2[C@]34NC(=O)C[C@H]3Oc3ccc(C)cc3[C@@H]4O[C@@]23C(=O)N(Cc2ccccc2)c2ccccc23)cc1 4.72

====

Reported IC50 values follow for various compounds
Biological target: Tyrosine-protein phosphatase non-receptor type 1 (Homo sapiens, UniProt P18031)
Assay: Inhibition of recombinant human PTP1B catalytic domain expressed in Escherichia coli BL21-CodonPlus (DE3) using pNPP as substrate measured for 2 mins
The response must be a number in µM with no trailing unit.

COC(=O)/C=C/Oc1c(OC)cccc1[C@@H]1O[C@@]2(C(=O)N(Cc3ccccc3)c3ccccc32)[C@@H](c2ccc(Br)cc2)[C@@H]1[N+](=O)[O-]; 3.89
Cc1ccc2c(c1)[C@@H]1O[C@@]3(C(=O)N(Cc4ccccc4)c4ccccc43)[C@@H](c3ccccc3)[C@@]13NC(=O)C[C@H]3O2; 10.3
COC(=O)/C=C/Oc1c(OC)cccc1[C@@H]1O[C@@]2(C(=O)N(Cc3ccccc3)c3ccccc32)[C@@H](c2ccc(C)cc2)[C@@H]1[N+](=O)[O-]; 6.8
COc1ccccc1[C@H]1[C@]23NC(=O)C[C@H]2Oc2c(OC)cccc2[C@@H]3O[C@@]12C(=O)N(Cc1ccccc1)c1ccccc12; 10
COc1cccc2c1O[C@@H]1CC(=O)N[C@]13[C@H]2O[C@@]1(C(=O)N(Cc2ccccc2)c2ccccc21)[C@H]3c1ccc(Br)cc1; 6.19

// next entry
Query (compound): COC(=O)/C=C/Oc1ccc(OC)cc1[C@@H]1O[C@@]2(C(=O)N(Cc3ccccc3)c3ccccc32)[C@@H](c2ccc(Br)cc2)[C@@H]1[N+](=O)[O-] ; field requested: IC50 5.34

====

Biological target: Tyrosine-protein phosphatase non-receptor type 1 (Homo sapiens)
Sequence (P18031 whole entry): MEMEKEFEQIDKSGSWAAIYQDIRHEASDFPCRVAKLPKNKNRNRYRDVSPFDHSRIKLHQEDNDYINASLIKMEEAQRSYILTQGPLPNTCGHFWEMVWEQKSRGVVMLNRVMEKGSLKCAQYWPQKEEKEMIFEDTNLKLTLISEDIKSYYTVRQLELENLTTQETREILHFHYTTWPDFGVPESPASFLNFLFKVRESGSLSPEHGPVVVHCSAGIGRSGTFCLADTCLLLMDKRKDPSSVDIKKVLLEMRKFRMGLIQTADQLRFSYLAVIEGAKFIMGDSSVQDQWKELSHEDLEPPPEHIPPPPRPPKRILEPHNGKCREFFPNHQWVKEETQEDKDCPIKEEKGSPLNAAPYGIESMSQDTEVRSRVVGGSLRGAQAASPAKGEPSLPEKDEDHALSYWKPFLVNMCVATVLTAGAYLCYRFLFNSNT
Assay: Inhibition of recombinant human PTP1B catalytic domain expressed in Escherichia coli BL21-CodonPlus (DE3) using pNPP as substrate measured for 2 mins
readout type: IC50 (µM)
State the answer as a number, implicitly in µM.

# count of solved cases: 3
COC(=O)C[C@H]1Oc2c(OC)cccc2[C@@H]2O[C@@]3(C(=O)N(Cc4ccccc4)c4ccccc43)[C@@H](c3ccc(Br)cc3)[C@]12[N+](=O)[O-]; 5.43
Cc1ccc([C@H]2[C@]34NC(=O)C[C@H]3Oc3ccc(Cl)cc3[C@@H]4O[C@@]23C(=O)N(Cc2ccccc2)c2ccccc23)cc1; 5.61
COc1ccc2c(c1)[C@@H]1O[C@@]3(C(=O)N(Cc4ccccc4)c4ccccc43)[C@@H](c3ccc(C)cc3)[C@@]13NC(=O)C[C@H]3O2; 7.98

IC50 for COC(=O)C[C@H]1Oc2ccc(OC)cc2[C@@H]2O[C@@]3(C(=O)N(Cc4ccccc4)c4ccccc43)[C@@H](c3ccc(C)cc3)[C@]12[N+](=O)[O-] ? 4.53

IC50 lookup needed for COC(=O)C[C@H]1Oc2ccc(OC)cc2[C@@H]2O[C@@]3(C(=O)N(Cc4ccccc4)c4ccccc43)[C@@H](c3ccc(Br)cc3)[C@]12[N+](=O)[O-] , thanks. 6.67

Using the record for COC(=O)/C=C/Oc1ccc(OC)cc1[C@@H]1O[C@@]2(C(=O)N(Cc3ccccc3)c3ccccc32)[C@@H](c2ccc(C)cc2)[C@@H]1[N+](=O)[O-] , report its IC50. 13.2

# query: IC50 of entry O=C1C[C@H]2Oc3ccc(Cl)cc3[C@@H]3O[C@@]4(C(=O)N(Cc5ccccc5)c5ccccc54)[C@@H](c4ccc(Br)cc4)[C@]23N1 6.04
